# TEST SYSTEM: ERBB4 (human) (UniProt Q15303)
# Sequence (Q15303 whole entry, looked up): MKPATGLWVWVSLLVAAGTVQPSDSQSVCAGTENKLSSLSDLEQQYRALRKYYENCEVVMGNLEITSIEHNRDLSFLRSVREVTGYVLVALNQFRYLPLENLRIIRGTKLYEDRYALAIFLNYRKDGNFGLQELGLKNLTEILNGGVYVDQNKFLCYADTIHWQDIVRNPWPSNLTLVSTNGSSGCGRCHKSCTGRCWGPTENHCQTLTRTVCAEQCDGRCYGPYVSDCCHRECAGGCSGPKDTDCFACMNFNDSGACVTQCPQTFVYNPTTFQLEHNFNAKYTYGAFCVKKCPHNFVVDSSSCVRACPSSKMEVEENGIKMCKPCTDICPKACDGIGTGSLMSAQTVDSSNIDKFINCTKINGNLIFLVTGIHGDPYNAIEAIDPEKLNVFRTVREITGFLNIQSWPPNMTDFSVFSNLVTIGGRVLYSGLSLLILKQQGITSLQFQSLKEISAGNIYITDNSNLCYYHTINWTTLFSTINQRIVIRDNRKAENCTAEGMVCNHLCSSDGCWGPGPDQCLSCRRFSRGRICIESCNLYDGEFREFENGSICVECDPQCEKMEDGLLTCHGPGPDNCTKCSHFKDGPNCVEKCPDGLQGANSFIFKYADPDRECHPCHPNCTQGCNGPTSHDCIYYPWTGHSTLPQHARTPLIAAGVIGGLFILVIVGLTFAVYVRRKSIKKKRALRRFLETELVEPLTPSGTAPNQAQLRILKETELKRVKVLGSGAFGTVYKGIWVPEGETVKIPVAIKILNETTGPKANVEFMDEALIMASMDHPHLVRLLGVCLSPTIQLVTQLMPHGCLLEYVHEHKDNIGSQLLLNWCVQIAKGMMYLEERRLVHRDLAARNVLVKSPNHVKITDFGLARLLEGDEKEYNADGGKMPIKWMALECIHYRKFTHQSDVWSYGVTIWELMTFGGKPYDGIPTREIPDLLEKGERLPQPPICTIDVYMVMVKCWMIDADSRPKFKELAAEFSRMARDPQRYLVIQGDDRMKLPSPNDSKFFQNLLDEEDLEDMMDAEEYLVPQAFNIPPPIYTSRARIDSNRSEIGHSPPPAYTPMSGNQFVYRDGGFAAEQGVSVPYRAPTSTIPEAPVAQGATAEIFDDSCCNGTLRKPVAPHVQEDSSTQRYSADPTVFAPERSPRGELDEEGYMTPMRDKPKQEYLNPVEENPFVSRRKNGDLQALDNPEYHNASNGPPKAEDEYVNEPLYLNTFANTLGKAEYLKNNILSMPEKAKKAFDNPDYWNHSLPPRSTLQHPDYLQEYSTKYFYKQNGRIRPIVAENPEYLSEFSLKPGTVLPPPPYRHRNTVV
# ASSAY DETAILS: radiometric filter-binding kinase assay
# EXPERIMENTAL PARAMETERS: compound 100.0 µM; ATP 5 µM
Parameter threshold = 30%. Response is Yes when inhibition meets or exceeds it, else No.

MOLECULE	ASSIGNED CATEGORY
COc1ccc(NC(=S)Nc2cnc3[nH]cnn3c2=O)cn1	Yes
CC1CN(c2nc3ccccn3c(=O)c2N)CC(C)O1 (stereo not given)	No
COc1ccc(-c2cc3c(=O)[nH]cnc3s2)cc1OC	No
CC(=O)Nc1nc2cnc(-c3c(C)cccc3C)cn2n1	No
O=c1c(NC(=S)NCc2ccccc2)cnc2[nH]ccn12	Yes
Nc1cnc2c(-c3c(F)cccc3F)cccn2c1=O	Yes
Cc1cccc(C)c1-c1cn2nc(N)nc2cn1	No
O=C(c1cccc(-c2cc3c(=O)[nH]cnc3s2)c1)N1CCOCC1	Yes
Nc1nc2cnc(-c3ccccc3)cn2n1	Yes
O=C(Nc1cnc2[nH]ccn2c1=O)c1ccccc1	No
CC(C)(C)Nc1c(C2CC2)nc2[nH]cnn12	No
O=c1cc(-c2ccccc2F)nc2[nH]ccn12	Yes
CC(C)(C)Nc1c(COCc2ccccc2)nc2[nH]cnn12	Yes
CC(=O)Nc1nc2cnc(-c3ccccc3)cn2n1	No
O=C(Nc1cnc2[nH]cnn2c1=O)c1ccccc1	No

---

# TEST SYSTEM: MAPK14 (human) (UniProt Q16539)
# Sequence (Q16539 whole entry, looked up): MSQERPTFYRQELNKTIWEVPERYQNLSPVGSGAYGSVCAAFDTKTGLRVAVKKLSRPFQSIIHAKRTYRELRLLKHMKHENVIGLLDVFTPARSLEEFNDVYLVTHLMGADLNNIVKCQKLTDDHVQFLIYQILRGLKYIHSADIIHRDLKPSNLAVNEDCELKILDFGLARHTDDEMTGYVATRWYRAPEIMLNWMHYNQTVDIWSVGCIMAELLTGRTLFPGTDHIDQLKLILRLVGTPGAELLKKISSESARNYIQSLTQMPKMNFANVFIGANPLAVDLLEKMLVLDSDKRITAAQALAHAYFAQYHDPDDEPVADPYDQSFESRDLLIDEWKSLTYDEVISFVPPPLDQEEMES
# ASSAY DETAILS: radiometric filter-binding kinase assay
# EXPERIMENTAL PARAMETERS: compound 100.0 µM; ATP 50 µM
# inhibition per record follows

COMPOUND	inhibition / %
O=C(c1cccc(-c2cc3c(=O)[nH]cnc3s2)c1)N1CCOCC1	0
CC(=O)Nc1nc2cnc(-c3ccccc3)cn2n1	10
CC(C)(C)Nc1c(C2CC2)nc2[nH]cnn12	0
COc1ccc(NC(=S)Nc2cnc3[nH]cnn3c2=O)cn1	0
CC1CN(c2nc3ccccn3c(=O)c2N)CC(C)O1 (stereo not drawn)	0
COc1ccc(-c2cc3c(=O)[nH]cnc3s2)cc1OC	0
O=C(Nc1cnc2[nH]cnn2c1=O)c1ccccc1	0
O=C(Nc1cnc2[nH]ccn2c1=O)c1ccccc1	2

---

# TEST SYSTEM: MAPK8 (human) (UniProt P45983)
# Sequence (P45983 whole entry, looked up): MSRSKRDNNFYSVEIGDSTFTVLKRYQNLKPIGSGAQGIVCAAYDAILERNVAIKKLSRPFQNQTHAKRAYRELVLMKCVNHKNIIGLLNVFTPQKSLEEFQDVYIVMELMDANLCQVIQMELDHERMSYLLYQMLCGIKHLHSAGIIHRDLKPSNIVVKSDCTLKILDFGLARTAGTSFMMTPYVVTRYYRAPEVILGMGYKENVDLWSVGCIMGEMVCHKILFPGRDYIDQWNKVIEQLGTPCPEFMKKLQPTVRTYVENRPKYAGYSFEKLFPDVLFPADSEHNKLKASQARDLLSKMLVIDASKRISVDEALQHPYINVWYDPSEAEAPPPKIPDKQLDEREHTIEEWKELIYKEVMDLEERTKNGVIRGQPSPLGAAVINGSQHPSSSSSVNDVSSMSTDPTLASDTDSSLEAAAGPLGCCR
# ASSAY DETAILS: radiometric filter-binding kinase assay
# EXPERIMENTAL PARAMETERS: compound 100.0 µM; ATP 20 µM

MOLECULE	UNIT ANNOTATION	inhibition
COc1ccc(NC(=S)Nc2cnc3[nH]cnn3c2=O)cn1	%	2
COc1ccc(-c2cc3c(=O)[nH]cnc3s2)cc1OC	%	8
O=c1c(NC(=S)NCc2ccccc2)cnc2[nH]ccn12	%	0
Nc1cnc2c(-c3c(F)cccc3F)cccn2c1=O	%	41
O=c1cc(-c2ccccc2F)nc2[nH]ccn12	%	0
CC(=O)Nc1nc2cnc(-c3c(C)cccc3C)cn2n1	%	0
CC(=O)Nc1nc2cnc(-c3ccccc3)cn2n1	%	2
O=C(Nc1cnc2[nH]ccn2c1=O)c1ccccc1	%	0
O=C(c1cccc(-c2cc3c(=O)[nH]cnc3s2)c1)N1CCOCC1	%	8
Cc1cccc(C)c1-c1cn2nc(N)nc2cn1	%	7
O=C(Nc1cnc2[nH]cnn2c1=O)c1ccccc1	%	0
CC1CN(c2nc3ccccn3c(=O)c2N)CC(C)O1 (stereo not given)	%	14
CC(C)(C)Nc1c(COCc2ccccc2)nc2[nH]cnn12	%	2
CC(C)(C)Nc1c(C2CC2)nc2[nH]cnn12	%	0
Nc1nc2cnc(-c3ccccc3)cn2n1	%	30
